- System: SW-620
- EXPERIMENT NOTES: Cytotoxicity against human SW620 cells assessed as inhibition of cell proliferation measured after 48 hrs by MTT assay
- Assay type: functional, cell-based
- MEASUREMENT CONDITIONS: SW-620, 48 h
REPORTED PROPERTY: pIC50
Would you please state pIC50, meaning minus log10 of the concentration in mol/L, as a bare number?

Exam item: Given CC(=O)O[C@H]1[C@H]2O[C@]23[C@@H]2CC[C@@H]4C[C@@H](O)CC[C@]4(C)[C@H]2CC[C@]3(C)[C@H]1c1ccc(=O)oc1 [CINOBUFAGIN] , respond with its pIC50.
Marked response: 6.44

---

- Tested on: HCT-116
- EXPERIMENT NOTES: Antiproliferative activity against human HCT-116 cells incubated for 48 hrs by MTT assay
- Type: functional, cell-based
- MEASUREMENT CONDITIONS: HCT-116, 48 h
REPORTED PROPERTY: IC50 (µM)
Write the value in µM as a bare number.

Exam item: Identify measured IC50 associated with O=c1cc(-c2ccc(Oc3c(-c4ccc(O)cc4)oc4cc(O)cc(O)c4c3=O)cc2)oc2cc(O)cc(O)c12
Marked response: 32

---

- Tested on: HT-29
- EXPERIMENT NOTES: Antiproliferative activity against human HT-29 cells incubated for 48 hrs by MTT assay
- Assay type: functional, cell-based
- MEASUREMENT CONDITIONS: HT-29, 48 h
REPORTED PROPERTY: pIC50
Formally, pIC50 is defined as -log10 of the concentration c, with c in mol/L.

Exam item: Please report pIC50 for the following compound: O=c1cc(-c2ccc(Oc3c(-c4ccc(O)cc4)oc4cc(O)cc(O)c4c3=O)cc2)oc2cc(O)cc(O)c12
Marked response: 4.73

---

- ASSAY TARGET: Signal transducer and activator of transcription 3 (Homo sapiens)
- Sequence (P40763 whole entry): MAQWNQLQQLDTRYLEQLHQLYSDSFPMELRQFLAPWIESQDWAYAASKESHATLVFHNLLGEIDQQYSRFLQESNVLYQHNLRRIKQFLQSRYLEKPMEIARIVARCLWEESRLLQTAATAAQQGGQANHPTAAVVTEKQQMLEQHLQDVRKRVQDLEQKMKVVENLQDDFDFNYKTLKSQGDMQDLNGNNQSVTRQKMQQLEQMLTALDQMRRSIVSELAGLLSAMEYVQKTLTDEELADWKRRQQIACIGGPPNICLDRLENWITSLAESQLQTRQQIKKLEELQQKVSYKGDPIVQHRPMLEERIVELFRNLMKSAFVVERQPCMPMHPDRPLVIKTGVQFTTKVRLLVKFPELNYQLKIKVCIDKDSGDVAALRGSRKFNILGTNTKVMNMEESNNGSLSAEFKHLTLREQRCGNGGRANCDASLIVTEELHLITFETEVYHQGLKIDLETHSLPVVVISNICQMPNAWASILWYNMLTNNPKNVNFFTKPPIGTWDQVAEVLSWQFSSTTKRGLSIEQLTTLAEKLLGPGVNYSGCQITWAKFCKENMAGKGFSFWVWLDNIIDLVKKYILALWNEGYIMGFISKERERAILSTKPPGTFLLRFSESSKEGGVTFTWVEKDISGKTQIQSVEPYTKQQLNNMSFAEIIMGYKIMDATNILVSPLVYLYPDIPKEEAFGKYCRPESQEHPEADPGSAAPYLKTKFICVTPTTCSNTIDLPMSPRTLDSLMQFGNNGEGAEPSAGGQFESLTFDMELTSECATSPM
- EXPERIMENT NOTES: Binding affinity to N-terminal his tagged recombinant human STAT3 expressed in insect cells assessed as dissociation constant by biolayer interferometry assay
- Parameters: species or system Insect cell
REPORTED PROPERTY: pKd
Value format note: pKd is -log10 of concentration (mol/L); just state the number.

Exam item: Tell us which pKd value is on record for Cc1ccc(COc2ccc3c(c2)C(=O)C(=O)C2=C3OC(C)C2)cc1 (stereo unspecified)
Marked response: 5.18

---

- Tested on: SW480
- EXPERIMENT NOTES: Antiproliferative activity against human SW480 cells assessed as inhibition of cell growth measured after 48 hrs by CCK-8 method
- Format: functional, cell-based
- MEASUREMENT CONDITIONS: SW480, 48 h
REPORTED PROPERTY: pIC50
Bear in mind: pIC50 is minus log10 of a mol/L concentration; give just that figure.

Exam item: Give pIC50 for CCc1ccc2c3[nH]c4ccccc4c3cc[n+]2c1
Marked response: 4.81

---

- System: SW-620
- EXPERIMENT NOTES: Antiproliferative activity against human SW620 cells assessed as inhibition of cell growth by CellTiter 96 Aqueous One Solution Cell Proliferation Assay
- Format: functional, cell-based
REPORTED PROPERTY: pIC50
Quick note: pIC50 values are minus log10 of concentrations in mol/L.

Exam item: Quick one: give measured pIC50 for CC(C)=CCc1cc(-c2coc3cc(O)c(CC=C(C)C)c(O)c3c2=O)cc(O)c1O
Marked response: 5.13

---

- System: HT-29
- EXPERIMENT NOTES: Antiproliferative activity in human HT-29 cells incubated for 48 hrs by MTT assay
- Type: functional, cell-based
- MEASUREMENT CONDITIONS: HT-29, 48 h
REPORTED PROPERTY: IC50 (µM)
Express it in µM; write the number only.

Exam item: Provide measured IC50 on HT-29 for C=CCCCOc1cc(O)c2c(c1)OC(c1ccc(O)cc1)CC2=O (stereo unspecified) please.
Marked response: 23.4

---

- System: HCT-116
- EXPERIMENT NOTES: Antiproliferative activity against human HCT-116 cells assessed as inhibition of cell viability
- Assay type: functional, cell-based
REPORTED PROPERTY: IC50
Answer by giving the amount and then stating its unit.

Exam item: Answer with the recorded IC50 of C/C=C1/CN(C)[C@H]2Cc3c([nH]c4ccccc34)[C@H](c3cc4[nH]c5c(c4cc3OC)CCN3C[C@@H]4C[C@H](CC)[C@H]3[C@@]5(C(=O)OC)C4)C[C@@H]1C2C(=O)OC (stereo partly specified) only.
Marked response: 4.1 µM

---

- System: HT-29
- EXPERIMENT NOTES: Induction of cell cycle arrest in human HT-29 cells measured after 24 to 48 hrs by PI staining based flow cytometry analysis
- Assay type: functional
REPORTED PROPERTY: pIC50
Schema: pIC50 number; meaning minus log10 of the concentration expressed in molar units.

Exam item: For the compound N#CC1=C(N)Oc2ccc3ccccc3c2C1c1ccc(F)cc1 (stereo unspecified) , report pIC50.
Marked response: 4.22

---

- System: SW-620
- EXPERIMENT NOTES: Antiproliferative activity against human SW620 cells assessed as reduction in cell viability measured after 24 hrs by CCK-8 method
- Assay type: functional, cell-based
- MEASUREMENT CONDITIONS: SW-620, 24 h
REPORTED PROPERTY: pIC50
Here pIC50 is given on a logarithmic scale as minus log10 of the concentration in mol/L.

Exam item: Give the reported pIC50 for this molecule. CCC(C)/C=C(\C)[C@H]1C(C)=C[C@@]2(C)C[C@@H](C)CC[C@@H]2[C@H]1C(=O)C1=C/C(=C/c2ccc(O)cc2)NC1=O (stereo partly specified) [TALAROCONVOLUTIN A]
Marked response: 5.24

---

- Tested on: RKO
- EXPERIMENT NOTES: Cytotoxicity against human RKO cells assessed as inhibition of cell proliferation measured after 24 hrs by MTT assay
- Format: functional, cell-based
REPORTED PROPERTY: pIC50
As a rule, pIC50 stands for the negative log10 of the concentration, concentration in M.

Exam item: Please give measured pIC50 of the following entry: Cc1ccc(COc2ccc3c(c2)C(=O)C(=O)C2=C3OC(C)C2)cc1 (stereo unspecified)
Marked response: 5.42

---

- Tested on: HT-29
- EXPERIMENT NOTES: Cytotoxicity against human HT-29 cells measured after 72 hrs
- Format: functional, cell-based
- MEASUREMENT CONDITIONS: HT-29, 72 h
REPORTED PROPERTY: IC50 (µM)
Lab book: enter the figure in µM, no units written.

Exam item: Write down measured IC50 (HT-29) for this compound. O=C(O)CCCCC1CCSS1 (stereo unspecified)
Marked response: 266

---

- Tested on: HT-29
- EXPERIMENT NOTES: Cytotoxicity against human HT-29 cells incubated for 24 hrs by MTT assay
- Assay type: functional, cell-based
- MEASUREMENT CONDITIONS: HT-29, 24 h
REPORTED PROPERTY: pIC50
Please treat pIC50 as minus the base-10 logarithm of the molar concentration.

Exam item: Given the compound C=C[C@@]12COC(=O)C(=C)[C@@H]1[C@H]1OC(=O)C(=C)[C@@H]1[C@@H](OC(=O)C(=C)CO)C2 , write its reported pIC50.
Marked response: 5.14

---

- Tested on: SW480
- EXPERIMENT NOTES: Antiproliferative activity against human SW480 cells assessed as inhibition of cell growth incubated for 24 hrs by CCK-8 method
- Type: functional, cell-based
- MEASUREMENT CONDITIONS: SW480, 24 h
REPORTED PROPERTY: IC50 (µM)
Lab book: enter the figure in µM, no units written.

Exam item: Let me know recorded IC50 for CC(CN1c2ccccc2Sc2ccccc21)N(C)C (stereo unspecified) [PROMETHAZINE] , thanks.
Marked response: 33

---

- Tested on: HCT-116
- EXPERIMENT NOTES: Antiproliferative activity against human HCT-116 cells expressing wild type p53 measured after 48 hrs by MTT assay
- Format: functional, cell-based
- MEASUREMENT CONDITIONS: HCT-116, 48 h
REPORTED PROPERTY: pIC50
// returns pIC50 (minus log10 of molar concentration), number only

Exam item: Specify reported pIC50 for the compound shown: Cc1c(CO)c(CO)c2n1[C@H](c1ccccc1)SC2
Marked response: 6.01

---

- Test system: HCT-116
- EXPERIMENT NOTES: Cytotoxicity against human HCT-116 cells measured after 72 hrs by WST-1 assay
- Format: functional, cell-based
- MEASUREMENT CONDITIONS: HCT-116, 72 h
REPORTED PROPERTY: pIC50
Hey, just a heads up that pIC50 is the negative log base 10 of the concentration in molar.

Exam item: # return pIC50 of COC(=O)[C@@]12OC[C@]34[C@H]([C@@H](O)[C@@H]1O)[C@@]1(C)CC(=O)C(O)=C(C)[C@@H]1C[C@H]3OC(=O)[C@H](OC(=O)/C=C(\C)C(C)(C)OC(C)=O)[C@@H]24 (system: HCT-116)
Marked response: 4.73
